Could you please report measured average injury rating, V4 Growth Stage, 2x 2,4-D for the items listed next?
- Tested on: F1 hybrid maize plants
- Test Summary: efficacy field trial for 2,4-D tolerance
- Format: in vivo
- Experimental Setup: scale 0 to 100; 2 lb ae/acre at VE-V2, V4, V8; with CTP unless label says no CTP
# output: bare number, no unit

// query Fill blank: measured average injury rating, V4 Growth Stage, 2x 2,4-D of the molecule MON-HT2: engineered oxygenase protein, amino acid sequence SEQ ID NO:18 (protein) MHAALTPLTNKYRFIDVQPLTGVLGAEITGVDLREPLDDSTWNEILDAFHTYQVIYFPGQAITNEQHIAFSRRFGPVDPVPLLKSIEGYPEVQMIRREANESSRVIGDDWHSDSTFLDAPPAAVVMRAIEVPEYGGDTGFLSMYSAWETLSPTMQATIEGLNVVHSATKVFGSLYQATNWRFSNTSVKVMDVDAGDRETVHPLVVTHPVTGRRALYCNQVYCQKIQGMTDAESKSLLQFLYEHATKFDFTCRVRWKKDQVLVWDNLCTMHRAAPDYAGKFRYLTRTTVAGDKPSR is ____.
// result 1.3

// query One more molecule: MON-HT5: engineered oxygenase protein, amino acid sequence SEQ ID NO:28 (protein) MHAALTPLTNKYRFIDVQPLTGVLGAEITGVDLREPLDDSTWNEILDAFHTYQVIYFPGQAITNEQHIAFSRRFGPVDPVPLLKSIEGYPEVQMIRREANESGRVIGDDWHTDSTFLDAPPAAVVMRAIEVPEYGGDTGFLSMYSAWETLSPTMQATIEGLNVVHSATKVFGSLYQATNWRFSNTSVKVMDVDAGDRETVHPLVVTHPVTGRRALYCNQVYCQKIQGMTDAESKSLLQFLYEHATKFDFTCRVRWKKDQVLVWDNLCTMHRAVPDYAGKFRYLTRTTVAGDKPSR
// result 2.5

// query Another molecule to check: MON-HT4: engineered oxygenase protein, amino acid sequence SEQ ID NO:25 (protein) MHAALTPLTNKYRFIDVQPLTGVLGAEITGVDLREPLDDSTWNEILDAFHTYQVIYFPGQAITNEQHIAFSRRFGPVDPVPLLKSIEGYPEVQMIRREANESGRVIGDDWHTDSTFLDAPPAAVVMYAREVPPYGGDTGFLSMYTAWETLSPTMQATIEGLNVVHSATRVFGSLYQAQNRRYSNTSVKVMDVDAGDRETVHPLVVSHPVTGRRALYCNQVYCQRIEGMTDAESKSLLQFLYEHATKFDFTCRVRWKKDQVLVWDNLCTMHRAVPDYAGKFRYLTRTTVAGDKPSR
// result 0.0

// query Next entry: MON-HT7: engineered oxygenase protein, amino acid sequence SEQ ID NO:34 (protein) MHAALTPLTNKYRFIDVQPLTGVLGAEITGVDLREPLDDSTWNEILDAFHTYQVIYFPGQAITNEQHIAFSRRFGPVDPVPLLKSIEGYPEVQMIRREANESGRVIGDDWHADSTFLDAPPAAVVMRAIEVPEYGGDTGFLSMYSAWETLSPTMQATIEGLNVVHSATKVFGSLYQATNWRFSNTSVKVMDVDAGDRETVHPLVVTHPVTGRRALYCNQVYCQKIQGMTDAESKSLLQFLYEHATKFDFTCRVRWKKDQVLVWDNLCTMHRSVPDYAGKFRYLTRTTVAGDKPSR
// result 1.3

// query Cool, now MON-HT3: engineered oxygenase protein, amino acid sequence SEQ ID NO:22 (protein) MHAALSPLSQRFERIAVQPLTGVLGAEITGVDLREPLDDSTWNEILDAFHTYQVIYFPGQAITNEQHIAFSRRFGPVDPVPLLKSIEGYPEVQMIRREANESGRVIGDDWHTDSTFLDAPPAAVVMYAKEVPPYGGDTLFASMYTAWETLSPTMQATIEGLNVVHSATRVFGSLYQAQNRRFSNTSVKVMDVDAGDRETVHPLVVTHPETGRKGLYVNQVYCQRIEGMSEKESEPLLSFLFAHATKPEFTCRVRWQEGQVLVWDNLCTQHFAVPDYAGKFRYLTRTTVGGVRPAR
// result 3.8
